# assayText: Pharmacokinetic studies in rats (single i.v. and p.o. dose)
# Type: in vivo
# conditionsUsed: male, SD, iv, rat, 20 mg/kg, plasma

{"chemicalSmiles": "COc1cc(/C=C/C2=CC(=O)[C@H]3C[C@@H]2C3(C)C)cc(O)c1O", "AUC(0-inf)": "1030 ng·h/mL"}

---

# assayText: Bioactivation studies in rat liver S9 fraction
# Type: in vitro ADME
# conditionsUsed: Sprague-Dawley, rat, liver S9 fraction, pH 7.4, cofactors: GSH + AA, rat liver S9 1 mg/mL, read-out: SP-8356 (% Remaining at 60 min)

{"chemicalSmiles": "COc1cc(/C=C/C2=CC(=O)[C@H]3C[C@@H]2C3(C)C)cc(O)c1O", "readingUnit": "%", "remaining at 1 h, 5 µM": 92.1}

Origin of values: paper PMC7221793
